- SYSTEM UNDER TEST: Torsin-1A (Homo sapiens) (UniProt O14656)
- Sequence (O14656 whole entry, looked up): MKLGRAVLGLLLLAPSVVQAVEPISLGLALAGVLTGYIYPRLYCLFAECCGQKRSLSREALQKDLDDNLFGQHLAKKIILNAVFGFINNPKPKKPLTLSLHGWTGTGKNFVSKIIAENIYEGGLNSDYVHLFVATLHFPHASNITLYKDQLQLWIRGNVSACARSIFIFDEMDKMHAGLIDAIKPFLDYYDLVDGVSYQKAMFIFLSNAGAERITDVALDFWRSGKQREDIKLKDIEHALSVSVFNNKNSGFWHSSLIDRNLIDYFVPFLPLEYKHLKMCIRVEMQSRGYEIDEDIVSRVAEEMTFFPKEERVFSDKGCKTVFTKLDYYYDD
- RUN DESCRIPTION: TOR1A wild-type binding on microarray – cell lysate, small-molecule microarray, lysate, 635/667 nm, primary screen (AID 1149)
- REPORTED CONDITIONS: COS7 hTOR1A-WT lysate, 635 nm fluorescence, higher = more signal
Reported composite z-score by item:
QUANTITY KIND: composite z-score

{"COMPOUND": "C=CCC(OC(C)=O)[C@@H]1[C@@H](N(Cc2ccc(-c3cccc(C(F)(F)F)c3)o2)C(=O)c2cccc3ccccc23)c2cc(OCCCO)ccc2N1C(=O)c1ccc(-c2ccccc2)cc1 (some centres not stated)", "RESULT": 0.1}
{"COMPOUND": "Cc1ccc(C(C)CC(O)C2C=CC3C(=O)N(Cc4ccccc4)C(=O)C3N2n2cnnc2)o1 (configuration not stated)", "RESULT": 0.173}
{"COMPOUND": "[N-]=[N+]=Nc1ccccc1[C@@H]1OC(c2ccc(OCCCO)cc2)=N[C@]1(CCS(=O)(=O)c1ccccc1)C(=O)NCc1ccccc1", "RESULT": 1.53}
{"COMPOUND": "C[N+](C)(C)CCCCCCNC(=O)[C@@H]1C[C@@H]2C(=O)NCC(=O)N2[C@@H]1c1ccc(O)cc1", "RESULT": 0.319}
{"COMPOUND": "COc1ccc([Si](C)(C)[C@@H]2[C@@H](CCO)O[C@]3(C(=O)N(Cc4ccc(N5C(=O)c6ccccc6Oc6ccccc65)cc4)c4ccccc43)[C@H]2C)cc1", "RESULT": -1.04}
{"COMPOUND": "COc1ccc(C#Cc2ccc3c(c2)[C@]2(C(=O)N3)[C@H](C(N)=O)[C@H]3C(=O)O[C@H](c4ccccc4)[C@H](c4ccccc4)N3[C@@H]2c2ccc(O)cc2)cc1", "RESULT": 0.369}
{"COMPOUND": "COc1ccccc1CN1C(=O)c2ccccc2[C@@H](C(=O)NCC(C)C)[C@@H]1c1ccc(CO)cc1", "RESULT": -0.114}

The reported numbers originate from PubChem BioAssay.
